All figures here come from ChEMBL document CHEMBL4118135.

target: Tyrosine-protein phosphatase non-receptor type 7 (Homo sapiens, UniProt P35236, P171C/V205C); experiment: Inhibition of allosterically sensitized mutant form of His6-tagged human HePTP catalytic domain overexpressed in Escherichia coli crude cell lysate using pNPP as substrate incubated for 90 mins by quenched phosphatase activity assay
Sequence (P35236 whole entry P171C/V205C, the tested form may be a part): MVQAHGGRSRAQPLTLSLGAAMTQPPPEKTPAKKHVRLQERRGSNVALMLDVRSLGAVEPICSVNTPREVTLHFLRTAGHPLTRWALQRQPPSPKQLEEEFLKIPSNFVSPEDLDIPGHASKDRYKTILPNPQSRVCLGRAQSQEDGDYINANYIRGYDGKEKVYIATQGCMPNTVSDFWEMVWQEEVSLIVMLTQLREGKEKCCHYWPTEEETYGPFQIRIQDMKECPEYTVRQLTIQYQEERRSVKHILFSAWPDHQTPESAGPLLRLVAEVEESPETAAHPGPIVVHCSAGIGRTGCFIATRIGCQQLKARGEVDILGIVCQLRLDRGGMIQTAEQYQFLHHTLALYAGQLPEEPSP
Reported Endpoint: IC50
# answer = value followed by unit

Exam item: What value of IC50 has been recorded for this entry: O=C(O)c1ccccc1-c1c2ccc(=O)c([As]3SCCS3)c-2oc2c([As]3SCCS3)c(O)ccc12
Marked response: 250 nM

###

target: Tyrosine-protein phosphatase non-receptor type 6 (Homo sapiens) (UniProt P29350); assay: Inhibition of allosterically sensitized mutant form of His6-tagged human SHP1 catalytic domain at 500 nM using pNPP as substrate incubated for 90 mins by quenched phosphatase activity assay
Sequence (P29350 whole entry, the tested form may be a part): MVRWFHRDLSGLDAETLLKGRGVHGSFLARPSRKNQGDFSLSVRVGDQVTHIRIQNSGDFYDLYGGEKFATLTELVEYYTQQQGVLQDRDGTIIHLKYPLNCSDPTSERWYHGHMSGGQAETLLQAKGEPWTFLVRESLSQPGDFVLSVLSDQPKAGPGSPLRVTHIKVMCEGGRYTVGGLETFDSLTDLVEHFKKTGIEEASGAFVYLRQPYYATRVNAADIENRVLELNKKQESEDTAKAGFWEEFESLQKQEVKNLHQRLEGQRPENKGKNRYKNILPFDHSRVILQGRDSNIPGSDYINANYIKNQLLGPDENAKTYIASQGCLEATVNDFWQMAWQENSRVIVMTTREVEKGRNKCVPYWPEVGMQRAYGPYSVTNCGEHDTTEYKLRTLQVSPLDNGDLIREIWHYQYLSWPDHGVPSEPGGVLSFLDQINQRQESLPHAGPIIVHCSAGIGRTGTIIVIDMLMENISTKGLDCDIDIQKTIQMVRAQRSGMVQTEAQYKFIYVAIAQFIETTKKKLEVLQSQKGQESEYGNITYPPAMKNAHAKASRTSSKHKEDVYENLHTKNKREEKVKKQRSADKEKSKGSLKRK
Active and inactive are the calls of the source. No cut-off for these calls is given here.
Reported Endpoint: inhibition

> print(dat)
                            molecule.smiles  recorded.result
1  O=C(O)c1ccccc1-c1c2ccc(=O)c([As]3SCCS3)c-2oc2c([As]3SCCS3)c(O)ccc12           Active
2  O=c1ccc2nc3ccc(O)c([As]4SCCS4)c3oc-2c1[As]1SCCS1           Active
3  CC1(C)C(/C=C/C=C/C=C2/N(CCCCS(=O)(=O)O)c3ccc([As]4SCCS4)cc3C2(C)C)=[N+](CCCCS(=O)(=O)O)c2ccc([As]3SCCS3)cc21           Active
4  CC1(C)C(/C=C/C=C2/N(CCCCS(=O)(=O)O)c3ccc([As]4SCCS4)cc3C2(C)C)=[N+](CCCCS(=O)(=O)O)c2ccc([As]3SCCS3)cc21           Active
